Test: Visual solubility of Form B
Assay type: physicochemical
Conditions: organic solvent or mixture, thermodynamic from solid; solvent DCM; RT; read-out: Visual Solubility at RT
readout type: solubility

[[record]]
molecule = "CCCCCc1cc(OC(=O)c2ccc3ccccc3c2)c2c(c1)OC(C)(C)[C@@H]1CCC(C)=C[C@@H]21 [Form B]"
readout_type = "solubility"
measured = "> 404 mg/mL"


====

Assay: D9 solubility in the liquors at isolation temperature
Format: physicochemical
Settings: crystallisation liquors over suspended solid, 25 °C, organic solvent or mixture, thermodynamic from solid, batch 5, n-BuOH, seed E/G, heat T 50, isolation T 25, SP 3, 9.8 mL/g
readout type: solubility (mg/mL)

[[record]]
compound = "CCCCCc1cc(OC(=O)c2ccc3ccccc3c2)c2c(c1)OC(C)(C)[C@@H]1CCC(C)=C[C@@H]21 [Form B]"
quantity_unit = "mg/mL"
measured = 14.8

